- assay remarks: Half life of beta-elimination phase in plasma after oral administration of 10-50 mg/kg in conscious dogs; Range is 2.2-2.9
- Format: ADME, organism-based, Canis lupus familiaris
- run parameters: dog
metric name: half-life (h)
Give the value, in units of h, as a plain number.

Kindly note the recorded half-life for CS(=O)(=O)Nc1ccc(C(=O)C2CCN(CCCc3ccncc3)CC2)cc1.Cl.Cl , which is 2.2
